biological target: T1, human Sortilin expressed on 293 / HEK293T cells (human, UniProt Q99523 78-830); assay: FACS, 293 cells;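 note: antibodies at 10 µg/ml bound to cells for 1 h on ice, detected with PE-labelled anti-human secondary antibody by flow cytometry, reported as mean fluorescence intensity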
T1 construct: full-length recombinant human Sortilin; also called hSort; SORT1
# maps each entry to its MFI

binder	MFI
S-58 (antibody, V domains shown, IgG) VH: QVQLQESGPGLVKPSETLSLTCAVSGYSISSGYYWGWIRQPPGKGLEWIGSIYHSGNTYYNPSLKSRVTISVDTSKNQFSLKLSSVTAADTAVYYCARGPPELGKMYFQHWGQGTLVTVSS VL: EIVLTQSPATLSVSPGERATLSCRASQSVSSNLAWYQQKPGQAPRLLIYGASTRATGIPARFSGSGSGTEFTLTISSLQSEDFAVYYCQQDRKGPLTFGGGTKVEIK	7770

Proceeding to the next binder to report its MFI.
Task: // MFI lookup, key: S-55 (antibody, V domains shown, IgG) VH: QVQLQESGPGLVKPSETLSLTCAVSGYSISSGYYWGWIRQPPGKGLEWIGSIYHSGSTYYNPSLKSRVTISVDTSKNQFSLKLSSVTAADTAVYYCARGRPELGWDKYFQHWGQGTLVTVSS VL: DIQMTQSPSSVSASVGDRVTITCRASQGISRWLAWYQQKPGKAPKLLIYAASSLQSGVPSRFSGSGSGTDFTLTISSLQPEDFATYYCQQANALPTFGGGTKVEIK
Result: 9480
